Measured %Inh, listed per entry.
# System: GSK3B;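 note: KINOMEscan kinase panel screen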
# test.parameters: concentration: 1 μM,replicates: in singlicate; n = 1
Unit % implied. Number only.

Recorded %Inh, per entry:
molecule: CC(=O)c1c(-c2ccncc2)[nH]c(-c2ccncc2)c1C
reading.unit: %
%Inh: 58
--
molecule: COc1cc2c(Nc3ccc(NC(=O)c4ccccc4)cc3)ncnc2cc1OCCCN1CCOCC1
reading.unit: %
%Inh: 11
--
molecule: Cl.Nc1n[nH]c2cc(-c3ccccn3)ccc12
reading.unit: %
%Inh: 0
--
molecule: O=c1[nH]cc(-c2ccc(O)cc2)c2sc(-c3ccncc3)cc12
reading.unit: %
%Inh: 22
--
molecule: NC(=O)c1ccc(-c2cc3ncnc(SCC(=O)O)c3s2)cc1
reading.unit: %
%Inh: 0
--
molecule: C[C@@H]1CNc2c(sc3ccc4nc(-c5ccc(O)cc5)ccc4c23)C(=O)N1
reading.unit: %
%Inh: 0
--
molecule: COC(=O)c1cccc(NC(=O)NC2CCN(c3ccnc(Nc4cc(OC)c(OC)c(OC)c4)n3)C2)c1 (stereo not drawn)
reading.unit: %
%Inh: 0
--
molecule: COc1cccc(OC)c1C(=O)Nc1cccc(-c2nn3ccccc3c2-c2ccnc(Nc3cccc(F)c3)n2)c1
reading.unit: %
%Inh: 0

Please find the next molecule below.
The measured %Inh associated with `Cn1ccc2ncnc(Oc3ccc(NC(=O)Nc4ccnc(C(F)(F)F)c4)c(Cl)c3)c21` reads 0

Measured values drawn from paper PMC5540273 for this set.
